- target or system: GST-Nv-NF-kB (Cys allele) (Nematostella vectensis, UniProt E5G601 2-411)
- Sequence: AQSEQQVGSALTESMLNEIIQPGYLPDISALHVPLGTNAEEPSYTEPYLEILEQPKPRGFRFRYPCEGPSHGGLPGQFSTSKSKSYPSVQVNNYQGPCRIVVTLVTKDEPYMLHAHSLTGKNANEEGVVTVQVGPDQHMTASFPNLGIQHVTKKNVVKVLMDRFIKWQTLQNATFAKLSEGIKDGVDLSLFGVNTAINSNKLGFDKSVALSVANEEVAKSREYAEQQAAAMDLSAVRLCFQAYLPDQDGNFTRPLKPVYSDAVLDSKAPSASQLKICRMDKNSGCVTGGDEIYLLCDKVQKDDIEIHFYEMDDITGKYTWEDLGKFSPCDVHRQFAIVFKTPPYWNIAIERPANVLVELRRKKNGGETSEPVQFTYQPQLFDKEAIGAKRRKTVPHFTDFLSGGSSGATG
- measurement description: protein-binding microarray (PBM); PBM: ~300 nM protein, 6 mM HEPES pH 7.8, 80 mM KCl, 0.5 mM EDTA, 0.5 mM EGTA, 6% glycerol, 35 ng/ul poly-dIdC, 1% milk, 1 h, room temperature; high values mean tight binding
- run parameters: dsDNA, one strand shown
Below, each entry is listed with its recorded binding signal.
Kindly answer with a numeric value in z-score, unit omitted.

Below are worked cases with known answers.
> print(dat)
                                 seq.string  reported.property  number
1  CCGATTAACATCAGGCTTTCCCATGATGTTAATCGGGTCTTGATTCGCTTGACGCTGCTG     binding signal    2.94
2  CCGATTAACATCAGGGGATAATATGATGTTAATCGGGTCTTGATTCGCTTGACGCTGCTG     binding signal    5.47
3  CCGATTAACATCAGGGACGCCCCTGATGTTAATCGGGTCTTGATTCGCTTGACGCTGCTG     binding signal    5.71
4  CCGATTAACATCAACCACCCCCTTGATGTTAATCGGGTCTTGATTCGCTTGACGCTGCTG     binding signal    3.02

Now for a further sequence.
**Query** Endpoint output: binding signal of `CCGATTAACATCAACCCCCCCCTTGATGTTAATCGGGTCTTGATTCGCTTGACGCTGCTG` . Value?
**Result** 4

###

Recorded binding signal, one value per entry.
- target or system: GST-Nv-NF-kB (Ser allele) (Nematostella vectensis, UniProt A7UNT2 2-411)
- Sequence: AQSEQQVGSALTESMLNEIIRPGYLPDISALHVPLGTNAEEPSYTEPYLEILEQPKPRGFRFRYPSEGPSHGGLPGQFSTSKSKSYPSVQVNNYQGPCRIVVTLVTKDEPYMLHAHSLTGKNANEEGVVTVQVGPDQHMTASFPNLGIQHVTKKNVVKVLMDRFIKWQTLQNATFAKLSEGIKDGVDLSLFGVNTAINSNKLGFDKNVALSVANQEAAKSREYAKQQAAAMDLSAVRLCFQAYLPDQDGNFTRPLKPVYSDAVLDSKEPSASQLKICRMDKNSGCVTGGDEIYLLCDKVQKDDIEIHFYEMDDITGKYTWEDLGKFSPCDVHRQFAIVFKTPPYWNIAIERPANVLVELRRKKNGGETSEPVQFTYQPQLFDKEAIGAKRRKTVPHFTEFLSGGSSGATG
- measurement description: protein-binding microarray (PBM); PBM: ~300 nM protein, 6 mM HEPES pH 7.8, 80 mM KCl, 0.5 mM EDTA, 0.5 mM EGTA, 6% glycerol, 35 ng/ul poly-dIdC, 1% milk, 1 h, room temperature; Ap Aiptasia and Nv Nematostella (sea anemones) / Co Capsaspora / Aq Amphimedon (sponge) / Dm Drosophila / Hu human; RHD is the Rel homology domain; high values mean tight binding
- run parameters: dsDNA, one strand shown
Write the value in z-score as a bare number.

> print(dat)
                                 seq.string  reported.property  number
1  CCGATTAACATCAAGTAATCCCCTGATGTTAATCGGGTCTTGATTCGCTTGACGCTGCTG     binding signal    7.94
2  CCGATTAACATCACTTCCCCCCCTGATGTTAATCGGGTCTTGATTCGCTTGACGCTGCTG     binding signal    5.01
3  CCGATTAACATCAGGGAATTACCTGATGTTAATCGGGTCTTGATTCGCTTGACGCTGCTG     binding signal    9.14
4  CCGATTAACATCAAAACCCCCCGTGATGTTAATCGGGTCTTGATTCGCTTGACGCTGCTG     binding signal    7.17
5  CCGATTAACATCAAGGGAGTCCCTGATGTTAATCGGGTCTTGATTCGCTTGACGCTGCTG     binding signal     4.3

**Query** Given the sequence `CCGATTAACATCATTCCCGGAAATGATGTTAATCGGGTCTTGATTCGCTTGACGCTGCTG` , what is its reported binding signal?
**Result** 2.61

**Query** Quick one: binding signal for `CCGATTAACATCAGGGTATTTAATGATGTTAATCGGGTCTTGATTCGCTTGACGCTGCTG` ?
**Result** 4.73

**Query** Would you kindly share the measured binding signal for `CCGATTAACATCAAAGATCCCCCTGATGTTAATCGGGTCTTGATTCGCTTGACGCTGCTG` ?
**Result** 7.79

**Query** # binding signal lookup, item `CCGATTAACATCAGGGGAGTGGATGATGTTAATCGGGTCTTGATTCGCTTGACGCTGCTG`
**Result** 3.98

All values here come from paper PMC5700166.
